Target: T1, human LAG3 (form used in Octet, Biacore and HDX-MS not given) (human, UniProt P18627 23-450, limits assumed)
T1 sequence (looked up): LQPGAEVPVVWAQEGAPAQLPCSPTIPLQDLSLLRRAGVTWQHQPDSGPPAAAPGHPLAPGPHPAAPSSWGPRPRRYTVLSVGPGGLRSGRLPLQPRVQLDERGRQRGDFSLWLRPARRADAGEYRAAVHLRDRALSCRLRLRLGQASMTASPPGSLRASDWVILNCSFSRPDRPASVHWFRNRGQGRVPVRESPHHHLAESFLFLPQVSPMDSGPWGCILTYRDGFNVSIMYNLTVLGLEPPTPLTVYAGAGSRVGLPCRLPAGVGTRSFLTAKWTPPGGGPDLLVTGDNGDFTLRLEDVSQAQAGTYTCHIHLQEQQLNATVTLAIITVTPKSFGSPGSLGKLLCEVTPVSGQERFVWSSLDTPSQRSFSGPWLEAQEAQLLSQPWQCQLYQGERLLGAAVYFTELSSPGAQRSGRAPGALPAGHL
Test: BLI (Octet), 1:1 fit
measured quantity: Kd (nM)
Give the quantity in nM, number only.

binder	units	Kd
hu029.55.S93Q (antibody, V domains shown) VH: QVQLVESGGGLVKPGGSLRLSCAASGFTFSSYAMSWIRQAPGKGLEWVSYVTSGGDYIYYADTVKGRFTISRDDAKNSLYLQMNSLRAEDTAVYYCTRVAYDYEWYFDVWGQGTLVTVSS VL: DIQMTQSPSSVSASVGDRVTITCKASQDVTTAVAWYQQKPGKAPKLLIYSASYRYTGVPSRFSGSGSGTDFTLTISSLQPEDFATYYCQQHDQSPWTFGQGTKLEIK	nM	4.08
hu029.53 (antibody, V domains shown, humanized from 029c) VH: QVQLVESGGGLVKPGGSLRLSCAASGFTFSSYAMSWIRQAPGKGLEWVAYVTSGGDYIYYADTVKGRFTISRDDAKNSLYLQMNSLRAEDTAMYYCTRVAYDYEWYFDVWGQGALVTVSS VL: DIQMTQSPSSVSASVGDRVTITCKASQDVTTAVAWYQQKPGKAPKLLIYSASYRYTGVPSRFSGSGSGTDFTLTISSLQPEDFATYYCQQHDSSPWTFGQGTKLEIK	nM	4.94

Given hu021.269 (antibody, V domains shown, humanized from 021c) VH: QVQLQESGPGLVKPSQTLSLTCTVSGYSITSGYYWNWIRQHPGNKLEWIGDISYDGGNNYNPSLKNRVTISRDTSKNQFSLKLSSVTAADTAVYYCARDITLTGAMDYWGQGTTVTVSS VL: EIVLTQSPATLSLSPGERATLSCRASESVDNYGISFMHWYQQKPGQAPRLLIYRASNRESGIPARFSGSGSRTDFTLTISSLEPEDFAVYYCQQSNKDPYTFGQGTKLEIK , state its recorded Kd. 6.95
